# Tested on: SF-539
# methodSummary: NCI-60 one-dose SRB screen (CNS Cancer)
# Format: cell-based
# conditionInfo: Homo sapiens, single dose 10 µM, 48 h, read-out: Growth inhibition percent (GI %)
Please use Met whenever inhibition at 10 µM is not below 20%, and Not met whenever it is.

Could you please find out whether COc1ccc(-c2nn(-c3ccc(S(N)(=O)=O)cc3)cc2C(=O)OCC(=O)Nc2nnc(S(N)(=O)=O)s2)cc1 has inhibition at 10 µM that meets 20% or exceeds it? Not met

Could you please find out whether CCOC(=O)c1ccc(NC(=O)COC(=O)c2cn(-c3ccc(S(N)(=O)=O)cc3)nc2-c2ccccc2)cc1 has inhibition at 10 µM that meets 20% or exceeds it? Met

Could you please find out whether Cc1ccc(-c2nn(-c3ccc(S(N)(=O)=O)cc3)cc2-c2nnc(N)s2)cc1 has inhibition at 10 µM that meets 20% or exceeds it? Not met

Could you please find out whether COc1ccc(-c2nn(-c3ccc(S(N)(=O)=O)cc3)cc2C(=O)NNC(N)=S)cc1 has inhibition at 10 µM that meets 20% or exceeds it? Not met

Could you please find out whether CCOC(=O)c1ccc(NC(=O)COC(=O)c2cn(-c3ccc(S(N)(=O)=O)cc3)nc2-c2ccc(S(C)(=O)=O)cc2)cc1 has inhibition at 10 µM that meets 20% or exceeds it? Not met

Could you please find out whether Cc1ccc(-c2nn(-c3ccc(S(N)(=O)=O)cc3)cc2C(=O)OCC(=O)Nc2nnc(S(N)(=O)=O)s2)cc1 has inhibition at 10 µM that meets 20% or exceeds it? Not met

Could you please find out whether CCOC(=O)c1ccc(NC(=O)COC(=O)c2cn(-c3ccc(S(N)(=O)=O)cc3)nc2-c2ccc(Br)cc2)cc1 has inhibition at 10 µM that meets 20% or exceeds it? Met

Could you please find out whether NC(=S)NNC(=O)c1cn(-c2ccc(S(N)(=O)=O)cc2)nc1-c1ccc(Br)cc1 has inhibition at 10 µM that meets 20% or exceeds it? Not met

Could you please find out whether COc1ccc(-c2nn(-c3ccc(S(N)(=O)=O)cc3)cc2C(=O)OCC(=O)Nc2ccc(S(N)(=O)=O)cc2)cc1 has inhibition at 10 µM that meets 20% or exceeds it? Not met

Could you please find out whether NS(=O)(=O)c1ccc(NC(=O)COC(=O)c2cn(-c3ccc(S(N)(=O)=O)cc3)nc2-c2ccc(Br)cc2)cc1 has inhibition at 10 µM that meets 20% or exceeds it? Met

Could you please find out whether CS(=O)(=O)c1ccc(-c2nn(-c3ccc(S(N)(=O)=O)cc3)cc2C(=O)NNC(N)=S)cc1 has inhibition at 10 µM that meets 20% or exceeds it? Not met

Could you please find out whether CCOC(=O)c1ccc(NC(=O)COC(=O)c2cn(-c3ccc(S(N)(=O)=O)cc3)nc2-c2ccc(OC)cc2)cc1 has inhibition at 10 µM that meets 20% or exceeds it? Met

Could you please find out whether CCOC(=O)c1ccc(NC(=O)COC(=O)c2cn(-c3ccc(S(N)(=O)=O)cc3)nc2-c2ccc(C)cc2)cc1 has inhibition at 10 µM that meets 20% or exceeds it? Met

Could you please find out whether CS(=O)(=O)c1ccc(-c2nn(-c3ccc(S(N)(=O)=O)cc3)cc2C(=O)OCC(=O)Nc2ccc(S(N)(=O)=O)cc2)cc1 has inhibition at 10 µM that meets 20% or exceeds it? Not met

Could you please find out whether NC(=S)NNC(=O)c1cn(-c2ccc(S(N)(=O)=O)cc2)nc1-c1ccccc1 has inhibition at 10 µM that meets 20% or exceeds it? Not met

Could you please find out whether NS(=O)(=O)c1ccc(NC(=O)COC(=O)c2cn(-c3ccc(S(N)(=O)=O)cc3)nc2-c2ccccc2)cc1 has inhibition at 10 µM that meets 20% or exceeds it? Not met

Could you please find out whether Cc1ccc(-c2nn(-c3ccc(S(N)(=O)=O)cc3)cc2-c2n[nH]c(=S)[nH]2)cc1 has inhibition at 10 µM that meets 20% or exceeds it? Not met

Could you please find out whether NS(=O)(=O)c1ccc(-n2cc(C(=O)OCC(=O)Nc3nnc(S(N)(=O)=O)s3)c(-c3ccccc3)n2)cc1 has inhibition at 10 µM that meets 20% or exceeds it? Not met

Could you please find out whether Cc1ccc(-c2nn(-c3ccc(S(N)(=O)=O)cc3)cc2C(=O)NNC(N)=S)cc1 has inhibition at 10 µM that meets 20% or exceeds it? Not met

The reported numbers originate from paper PMC12454493.
